The following binders are listed with their measured ELISA (T/B) values.
- Target or test system: T1, human plasma kallikrein (human, UniProt P03952 20-390; P03952 391-638)
- T1 construct: also called pKal; Human pKal
- T1 sequence (P03952 20-390, chain 1 of 2): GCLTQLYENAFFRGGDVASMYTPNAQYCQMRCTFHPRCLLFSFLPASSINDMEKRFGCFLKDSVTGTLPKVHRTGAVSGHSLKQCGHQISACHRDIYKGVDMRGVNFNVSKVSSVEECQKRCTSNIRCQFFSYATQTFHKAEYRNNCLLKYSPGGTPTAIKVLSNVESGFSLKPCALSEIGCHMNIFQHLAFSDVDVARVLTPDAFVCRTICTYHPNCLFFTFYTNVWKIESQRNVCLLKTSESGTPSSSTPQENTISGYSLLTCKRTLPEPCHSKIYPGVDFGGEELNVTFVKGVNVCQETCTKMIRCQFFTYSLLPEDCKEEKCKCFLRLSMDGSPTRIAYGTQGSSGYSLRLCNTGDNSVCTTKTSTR
- T1 sequence (P03952 391-638, chain 2 of 2): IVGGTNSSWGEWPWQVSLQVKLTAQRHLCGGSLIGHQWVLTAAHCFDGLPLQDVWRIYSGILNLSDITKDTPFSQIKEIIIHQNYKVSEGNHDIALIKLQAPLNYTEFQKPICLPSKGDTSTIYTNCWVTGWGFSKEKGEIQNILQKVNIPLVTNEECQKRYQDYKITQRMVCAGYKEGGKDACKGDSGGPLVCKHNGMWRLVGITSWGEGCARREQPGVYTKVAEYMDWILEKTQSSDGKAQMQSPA
- Procedure details: ELISA, biotinylated pKal signal over streptavidin background

{"Binder": "M8-C04 (Fab, V domains shown, HC as printed runs into CH1) VH: EVQLLESGGGLVQPGGSLRLSCAASGFTFSYYPMQWVRQAPGKGLEWVSYIYPSGGLTSYADSVKGRFTISRDNSKNTLYLQMNSLRAEDTAVYYCARLFYGSGSVGFEYWGQGTLVTVSS VL: QSALTQPPSVSVSPGQTASITCSGDKLGDKYTSWHQQKPGQSPVLVIYQDSKRPSGIPERFSGSNSGNTATLTISGTQAMDEADYYCQAWDSSTVFGGGTRLTVL", "ELISA (T/B)": 44.7}
{"Binder": "M76-H02 (Fab, V domains shown, HC as printed runs into CH1) VH: EVQLLESGGGLVQPGGSLRLSCAASGFTFSMYWMQWVRQAPGKGLEWVSYIYPSGGPTKYADSVKGRFTISRDNSKNTLYLQMNSLRAEDTAVYYCARPSGSYGDAFDIWGQGTMVTVSS VL: DIQMTQSPSSLSASEGDRVTITCRASQDISVYLNWYQMKSGKAPKLLIYGGASLQSGVPARFSGSGYGTDFTLTITDLRPEDFATYYCQQSYSLPFTFGGGTKVEIK", "ELISA (T/B)": 13.4}
{"Binder": "M10-E06 (Fab, V domains shown, HC as printed runs into CH1) VH: EVQLLESGGGLVQPGGSLRLSCAASGFTFSLYRMFWVRQAPGKGLEWVSSIWSSGGPTMYADSVKGRFTISRDNSKNTLYLQMNSLRAEDTAVYYCAREYPSTYYFDYWGQGTLVTVSS VL: DIQMTQSPSSLSASVGDRVTITCRASQSISTYLNWYQQKPGKAPKLLIYGASSLQSGVPSRFSGSGSGTDFTLTISSLQPEDFTIYYCQQSYSDPYTFGQGTKLDIK", "ELISA (T/B)": 32.8}
{"Binder": "M8-D05 (Fab, V domains shown, HC as printed runs into CH1) VH: EVQLLESGGGLVQPGGSLRLSCAASGFTFSLYNMNWVRQAPGKGLEWVSSISPSGGFTDYADSVKGRFTISRDNSKNTLYLQMNSLRAEDTAVYYCARDLDLGILDYWGQGTLVTVSS VL: DIQMTQSPSFVSASVGDRVTITCRASQDISSWLVWYQQKPGKGPKLLIYDASNLQSGVPSRFSGGGSGTHFTLTISSLQPEDFATYYCQQADGFPLTFGGGTKVEMK", "ELISA (T/B)": 11.9}
{"Binder": "M28-C03 (Fab, V domains shown, HC as printed runs into CH1) VH: EVQLLESGGGLVQPGGSLRLSCAASGFTFSYYQMGWVRQAPGKGLEWVSSIYPSGGMTDYADSVKGRFTISRDNSKNTLYLQMNSLRAEDTAVYYCTRGSPWGDDAFDIWGQGTMVTVSS VL: DIQMTQSPSSLSASVGDRVTITCRASQSINFYLNWYQQKPGKAPKLLIYVASSLESGVPSRFSGSASGTEFTLTISSLQPEDFATYYCLQSYSAPYTFGQGTKVEIT", "ELISA (T/B)": 2.2}
